Collected resulting pH values appear next to each entry.
Test: Resulting pH of biofilm medium after addition of hydroxylated carboxylic acid
Assay type: physicochemical
Details: 0.06% acid in biofilm medium, unbuffered
Just the number, please, no unit attached.

# COMPOUND, REPORTED
data = [
    ("O=C(O)CC(O)(CC(=O)O)C(=O)O [citric acid]", 4.6),
    ("O=C(O)[C@H](O)[C@@H](O)[C@H](O)[C@H](O)CO [gluconic acid]", 6.5),
    ("O=C(O)C(O)CO (centres unmarked) [glyceric acid]", 7.0),
    ("CC(O)C(=O)O (centres unmarked) [lactic acid]", 4.9),
]

Field: next compound
Ask | Return the recorded resulting pH value; entry: O=C(O)[C@H](O)[C@@H](O)[C@H](O)CO [xylonic acid]
Reply | 7.0
